Data credit: ChEMBL document CHEMBL5058577

Reported Population Healthy Nuclei (%) values for a set of compounds
System: Fibroblast
assay.remarks: Multiplex assay against human fibroblast
Type: toxicity, cell-based
details: 24 h, 1 µM, compound concentration 1 uM, replicate 1
# value in %; strip the unit string

Would you please look over these solved cases?
[
  {
    "compound": "CCNC1(C(N)=O)CCN(c2ncnc3c2nc(-c2ccccc2Cl)n3-c2ccc(Cl)cc2)CC1",
    "Population Healthy Nuclei (%)": 66
  },
  {
    "compound": "Cc1ccc(/C(=C\\CN2CCCC2)c2ccccn2)cc1",
    "Population Healthy Nuclei (%)": 69
  },
  {
    "compound": "Cc1ccccc1C(=O)Nc1ccc(C(=O)N2CCCC(N(C)C)c3ccccc32)cc1.Cl (stereo not given)",
    "Population Healthy Nuclei (%)": 76
  },
  {
    "compound": "CSCC[C@H](NC=O)C(=O)N[C@@H](CC(C)C)C(=O)N[C@@H](Cc1ccccc1)C(=O)O",
    "Population Healthy Nuclei (%)": 73
  },
  {
    "compound": "O=C(O)Cc1ccccc1Nc1c(Cl)cccc1Cl",
    "Population Healthy Nuclei (%)": 66
  },
  {
    "compound": "CNC[C@H](O)c1ccc(O)c(O)c1 [EPINEPHRINE]",
    "Population Healthy Nuclei (%)": 70
  }
]

Problem: State its Population Healthy Nuclei (%): `O=C(NCCO)c1cccc(-c2cc(Nc3ccc(OC(F)(F)F)cc3)ncn2)c1`
Solution: 60

Problem: State its Population Healthy Nuclei (%): `N#Cc1c(N)nc(SCc2csc(-c3ccc(Cl)cc3)n2)c(C#N)c1-c1ccc(OCCO)cc1`
Solution: 80

Problem: State its Population Healthy Nuclei (%): Cc1ccc(C(C)(O)c2nc3ccccc3s2)c(C)c1 (stereo not given)
Solution: 73

Problem: State its Population Healthy Nuclei (%): CN1CCN2c3ncccc3Cc3ccccc3C2C1 (stereo not given)
Solution: 82

Problem: State its Population Healthy Nuclei (%): `C[C@@H]1C[C@H]2[C@@H]3CCC4=CC(=O)C=C[C@]4(C)[C@@]3(F)[C@@H](O)C[C@]2(C)[C@@]1(O)C(=O)CO`
Solution: 68

Problem: State its Population Healthy Nuclei (%): `O=C(O)c1cc2ccccc2c(Cc2c(O)c(C(=O)O)cc3ccccc23)c1O`
Solution: 86

---

Test system: HEK-293T
assay.remarks: Multiplex assay against HEK293T
Format: toxicity, cell-based
details: human, 48 h, 10 µM, compound concentration 10 uM, replicate 2
Reported Population Membrane Permeable-Phenotype (%) values for a set of compounds
# value in %; strip the unit string

Would you please look over these solved cases?
[
  {
    "compound": "O=C(O)Cc1ccccc1Nc1c(Cl)cccc1Cl",
    "reported": 0
  },
  {
    "compound": "CCCN1CCC[C@@H]2Cc3n[nH]cc3C[C@H]21.Cl [QUINPIROLE HYDROCHLORIDE]",
    "reported": 0
  },
  {
    "compound": "Cc1nc2ccc(Oc3ccc(F)cc3)cc2c(=O)n1C[C@H]1CCCN(C(C)C)C1.Cl",
    "reported": 0
  },
  {
    "compound": "CCNC1(C(N)=O)CCN(c2ncnc3c2nc(-c2ccccc2Cl)n3-c2ccc(Cl)cc2)CC1",
    "reported": 0
  }
]

// moving on: another record for Population Membrane Permeable-Phenotype (%)
Problem: State its Population Membrane Permeable-Phenotype (%): `Cc1ccc(/C(=C\CN2CCCC2)c2ccccn2)cc1`
Solution: 1
